Biological target: T1, recombinant His-tagged Der p1 (dust mite, UniProt P08176 99-320, limits assumed)
T1 construct: Recombinant His-tagged protein made by the applicant; also called Der p1-His; Der pl; not shown: His tag
T1 sequence (looked up): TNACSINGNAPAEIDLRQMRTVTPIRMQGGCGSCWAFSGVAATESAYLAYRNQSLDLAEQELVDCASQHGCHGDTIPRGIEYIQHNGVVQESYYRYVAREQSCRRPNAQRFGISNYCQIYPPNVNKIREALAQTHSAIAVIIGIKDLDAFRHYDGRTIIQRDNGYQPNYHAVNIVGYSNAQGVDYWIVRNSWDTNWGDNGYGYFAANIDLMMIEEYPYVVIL
Experiment: ELISA, Der p1 on plate, biotinylated peptide at 30, duplicate 2
No end group written: not given here.
Measured OD450, listed per entry.

# Binder, OD450, OD450
data = [
    ("GIHMALM (also: biotinylated, site not given here, 7-amino acid peptide from a phage display library) [SDAB22110-2-B2]", 0.537),
    ("HSGPECG (also: biotinylated, site not given here, 7-amino acid peptide from a phage display library) [SDAB22110-2-D3]", 4.13),
    ("AVVSFYP (also: biotinylated, site not given here, 7-amino acid peptide from a phage display library) [SDAB22110-2-F1]", 0.805),
    ("YPTWAYR (also: biotinylated, site not given here, 7-amino acid peptide from a phage display library) [SDAB22110-2-C3]", 0.748),
    ("LTGYGMS (also: biotinylated, site not given here, 7-amino acid peptide from a phage display library) [SDAB22110-2-D9]", 0.771),
    ("VVAFGIS (also: biotinylated, site not given here, 7-amino acid peptide from a phage display library) [SDAB22110-2-G1]", 0.629),
]
